- Test system: Hs-578T
- ASSAY_EXPLANATION: NCI tumour cell line growth inhibition, 48 h
Activity calls are given as the source filed them. Cut-off read from the data, not from the text of the source: active = GI50 up to about 1.1 µM and inactive = higher.
Outcomes: active, inactive

COMPOUND: c1ccc([P+](Cc2ccc(C[P+](c3ccccc3)(c3ccccc3)c3ccccc3)cc2)(c2ccccc2)c2ccccc2)cc1
QUALITATIVE_LABEL: inactive

COMPOUND: CN(C)C(n1cc2c(c1)-c1ccc(Cl)cc1C(c1ccccc1F)=NC2)n1cc2c(c1)-c1ccc(Cl)cc1C(c1ccccc1F)=NC2
QUALITATIVE_LABEL: inactive

COMPOUND: Cc1ccnc2nc(-c3cccc(Cl)c3)cc(O)c12
QUALITATIVE_LABEL: active

COMPOUND: N#Cc1cccc(Nc2ccccc2SSc2ccccc2Nc2cccc(C#N)c2)c1
QUALITATIVE_LABEL: inactive

COMPOUND: Cc1cc(S(=O)(=O)N=C2NCC(C)(C)CN2)c(S)cc1Cl
QUALITATIVE_LABEL: inactive

COMPOUND: CN[C@@H](C)[C@H](OP(=O)(O)OC1[C@@H](O)[C@H](O)C(O)[C@H](O)[C@@H]1O)c1ccccc1 (some centres undefined)
QUALITATIVE_LABEL: inactive

COMPOUND: CC1=C(C2=C(C)C(=O)C(=O)c3cc(C)ccc32)c2ccc(C)cc2C(=O)C1=O
QUALITATIVE_LABEL: active

COMPOUND: Cc1nc(N)nc(S)c1CCC(=O)O
QUALITATIVE_LABEL: inactive

COMPOUND: C[C@@H]1CCC[C@]2(C)O[C@H]2CC[C@@](C)(O)[C@@H]2CC3=C(CO)C(=O)O[C@H]3[C@H]1O2
QUALITATIVE_LABEL: inactive
